Where do the numbers come from? From the nanobody polyreactivity screen of Harvey et al. (2022).

Assay: yeast display, Sf9 membrane polyspecificity reagent, FACS + sequencing; frameworks hold sequencing errors
value kind: polyreactivity (PSR sort gate)

Please review the following examples before continuing.
sequence: QVQLVESGGGLVQAGGSLRLSCAASGRTFWGNAMGWYRQAPGKERELVAAIRRGGRTNYADSVKGRFTISRDNAKNTVYLQMNSLKPEDTAVYYCNALYAWSWPRGYDYWGQGTQVTVSS
observed measurement: high polyreactivity
--
sequence: QVQLVESGGGLVQAGGSLRLSCAASGITFSYYAMGWYRQAPGKEREFVAAISWSGGSTYYADSVKGRFTISRDNAKNTVYLQMNSLKPEDTAVYYCAADRYPYGLDYWGQGTQVTVSS
observed measurement: high polyreactivity
--
sequence: QVQLVESGGGLVQAGGSLRLSCAASGRTLVLYVMGWYRQAPGKERELVAAISSGGSTNYADSVKGRFTISRDNAKNTVYLQMNSLKPEDTAVYYCAARFVLRRDYGYGGQGTQVTVSS
observed measurement: high polyreactivity
--
sequence: QVHLVETGRGLLQSGGSLRISCAASGRTFIYNAMGWYRQAPGKERELVARISSGGGNTYYAYSVKWRFTISRDNANNTVYLLMNSLKPEDTAVYYCAIGWRPSFSYYWGQGTQVTVSS
observed measurement: high polyreactivity
--
sequence: QVQLVESGGGLVQAGGSLRLICAASGSTFGPYSMGWYRQAPGKEMELVAVITTSGSTNYADSVKGRFTISRDNAKNTVYLQMNSLKPEDTAVYYCAARYRYYGTNRYYYWGQGTQVTVSS
observed measurement: high polyreactivity

## Task Which polyreactivity (PSR sort gate) reading was recorded for the sequence QVQLVESGGGLVQAGGSLRLSCAASGRTLPRYAMGGYRQAPGKERELVARIRYRGVSTYYADSVKGRFTISRDNAKTSVYLQMNSLKPEDTAVYYCAARASRAGLSGYWGQGTQVTVSS ?
## Result high polyreactivity
